# Test system: wheat (Triticum aestivum)
# Method notes: Test B pre-/postemergence plant response
# Assay type: in vivo
# Experimental context: Preemergence, 125 g ai/ha; 0 to 100 scale (0 no effect, 100 complete control)
Assay metric: Wheat plant response rating
Please reply with the number alone, leaving off any unit.

Item under review: N#Cc1cccc(Oc2ncc(Br)cn2)c1-c1ccc(Cl)cn1 [Compound 204] . Reported Wheat plant response rating?
0

Param item: Clc1ccc(-c2c(Br)cccc2Oc2ncc(Cl)cn2)nc1 [Compound 135]
0

Param item: Clc1ccc(-c2ccc(Br)cc2Oc2ncc(Cl)cn2)nc1 [Compound 203]
0

Param item: FC(F)(F)c1cc(-c2ccccc2Oc2ncc(Cl)cn2)no1 [Compound 200]
20

Param item: Fc1cnc(Oc2ccccc2-c2cc(C(F)(F)F)on2)nc1 [Compound 206]
0

Param item: N#Cc1cccc(Oc2ncc(Cl)cn2)c1-c1ccc(Cl)cn1 [Compound 202]
0

====

# Test system: soybean (Glycine max)
# Method notes: Test D pre-/postemergence plant response
# Assay type: in vivo
# Experimental context: Glycine max, pre-emergence; Preemergence, 125 g ai/ha; read-out: Plant response rating (scale 0 to 100), Soybean
Assay metric: plant injury at 125 g/ha (%)
Quick note: give the figure in %, leave out the unit.

Which plant injury at 125 g/ha is reported with soybean (Glycine max) for this entry: "FC(F)c1cc(-c2ccccc2Oc2ncc(Cl)cn2)on1" ?
80

Param item: "Fc1cccc(Oc2ncc(Br)cn2)c1-c1cc(C(F)F)no1"
90

Param item: "N#Cc1cccc(Oc2ncc(Cl)cn2)c1-c1cc(C(F)(F)F)ccn1"
95

Param item: "Fc1cccc(Oc2ncc(Cl)cn2)c1-c1cc(C(F)F)on1"
98

====

# Tested on: giant foxtail (Setaria faberii)
# Method notes: Test D pre-/postemergence plant response
# Format: in vivo
# Experimental context: Preemergence; 16 g ai/ha; scale 0 to 100 (0 no effect, 100 complete control)
Give measured Plant response rating, Foxtail, Giant for each item. Keep answers brief.

Item under review: FC(F)c1cc(-c2c(Cl)cccc2Oc2ncc(Cl)cn2)on1 [Compound 120] . Reported Plant response rating, Foxtail, Giant?
95

Param item: Fc1cccc(Oc2ncc(Br)cn2)c1-c1cc(C(F)F)on1 [Compound 118]
98

Param item: Cc1cc(-c2ccccc2Oc2ncc(Cl)cn2)on1 [Compound 58]
0

Param item: Cc1cc(-c2ccccc2Oc2ncc(Cl)cn2)no1 [Compound 60]
0

====

# Test system: waterhemp (common waterhemp, Amaranthus rudis)
# Method notes: Test D pre-/postemergence plant response
# Type: in vivo
# Experimental context: Postemergence, 125 g ai/ha; scale 0 to 100, 0 no effect, 100 complete control
# Excerpt: […]
Give measured Plant response rating, Waterhemp for each item. Keep answers brief.
Please reply with the number alone, leaving off any unit.

Item under review: "Cc1cc(-c2ccccc2Oc2ncc(Cl)cn2)on1" . Reported Plant response rating, Waterhemp?
75

Param item: "Cc1cc(-c2c(F)cccc2Oc2ncc(Cl)cn2)on1"
85

Param item: "FC(F)c1cc(-c2c(Cl)cccc2Oc2ncc(Br)cn2)on1"
100

Param item: "FC(F)c1cc(-c2ccccc2Oc2ncc(Br)cn2)on1"
100

Param item: FC(Cl)c1cc(-c2ccccc2Oc2ncc(Cl)cn2)no1 (centres unmarked)
100

====

# System: morningglory (Ipomoea coccinea)
# Method notes: Test D pre-/postemergence plant response
# Format: in vivo
# Experimental context: Postemergence, 16 g ai/ha
Assay metric: Plant response rating (scale 0 to 100), Morningglory
Please reply with the number alone, leaving off any unit.

Which Plant response rating (scale 0 to 100), Morningglory is reported with morningglory (Ipomoea coccinea) for this entry: FCc1cc(-c2c(Br)cccc2Oc2ncc(Cl)cn2)no1 [Compound 191] ?
65

Param item: Clc1cnc(Oc2ccccc2-c2cc(Cl)sn2)nc1 [Compound 192]
0

Param item: Fc1cccc(Oc2ncc(Cl)cn2)c1-c1cc(C(F)(F)F)no1 [Compound 228]
65

Param item: FCc1cc(-c2ccccc2Oc2ncc(Cl)cn2)on1 [Compound 224]
15

Param item: FC(F)c1cc(-c2c(Cl)cccc2Oc2ncc(Cl)cn2)no1 [Compound 179]
30
